experimentalDetails: Toxicity liver stage against HepG2, at 10uM
Format: cell-based
Set-up: test concentration 10 uM, cell line HepG2-A16-CD81EGFP
conditionSummary: human, HepG2-A16-CD81EGFP cells; read-out: INHIBITION
propertyMeasured: cytotoxicity at 10 µM (%)
Entry rule: numbers only, all in %.

Which cytotoxicity at 10 µM value belongs to Cc1nn(C)c(C)c1C1CCCN1Cc1ccc(C(N)=O)cc1 (stereo not drawn) ?
-1.01

Which cytotoxicity at 10 µM value belongs to O=C1CCNc2ncc(-c3cccc(Cl)c3)cc2CN1C1CC1 ?
8.55

Which cytotoxicity at 10 µM value belongs to COCCN(C)C[C@H]1C[C@H](CO)CN(C(=O)c2ccc(=O)n(C)c2)C1 ?
-1.06

Which cytotoxicity at 10 µM value belongs to CS(=O)(=O)CCCSc1cccc(C#N)c1 ?
-1.38

Which cytotoxicity at 10 µM value belongs to CCOCCN1Cc2ncn(C)c2C(COCC2CCOCC2)C1 (stereo not drawn) ?
-70.6

Which cytotoxicity at 10 µM value belongs to Cc1nn(C)c(C)c1C1CCCN1Cc1cccc(C(N)=O)c1 (stereo not drawn) ?
-10.2

Which cytotoxicity at 10 µM value belongs to CCc1ccc(CNC(=O)NC2CCCc3c2cnn3CCO)s1 (stereo not drawn) ?
-6.78

Which cytotoxicity at 10 µM value belongs to Cc1ncc(COc2cccc3c2NC(=O)CO3)s1 ?
-3.13

Which cytotoxicity at 10 µM value belongs to COc1ccc2c(c1)C(=O)NC1(CC2)CCN(Cc2ccccn2)C1 (stereo not drawn) ?
4.51

Which cytotoxicity at 10 µM value belongs to Cc1ccc(-c2ncc(C(=O)N3CCCC(CCN)C3)c(O)n2)cc1 (stereo not drawn) ?
-7.98

Which cytotoxicity at 10 µM value belongs to Cc1cc(NCc2cccc(C#N)c2)ccc1C(N)=O ?
10.1

Which cytotoxicity at 10 µM value belongs to COCC1CN(C(=O)c2ccnnc2)Cc2c1cnn2C (stereo not drawn) ?
-3.09

Which cytotoxicity at 10 µM value belongs to Cc1noc(C)c1CN1CCN(Cc2nc(C3CC3)no2)CC1 ?
31.4

Which cytotoxicity at 10 µM value belongs to CC(C)c1noc(-c2ccc(NCCCN3CCCC(O)C3)nc2)n1 (stereo not drawn) ?
-6.87

Which cytotoxicity at 10 µM value belongs to Cc1cnc(C2(C)CCN(Cc3cscn3)CC2)s1 ?
-22.5

Which cytotoxicity at 10 µM value belongs to CCN(Cc1cccc2c1OCO2)C(=O)Nc1ccccn1 ?
-21.7

Which cytotoxicity at 10 µM value belongs to CCOc1ccccc1-c1cc(N)[nH]n1 ?
5.75

Which cytotoxicity at 10 µM value belongs to CC1CCN(S(=O)(=O)NCc2ccccc2Cn2cncn2)CC1 ?
-2.72

Which cytotoxicity at 10 µM value belongs to O=C(c1cncs1)N1CCOCC(Cc2ccncn2)C1 (stereo not drawn) ?
1.13

Which cytotoxicity at 10 µM value belongs to O=C(Nc1ccccc1N1CCOC1=O)N1CCSCC1 ?
3.15

Which cytotoxicity at 10 µM value belongs to CC(C)c1noc(CCCC(=O)N2CCN(C)CC2c2ccccc2)n1 (stereo not drawn) ?
-2.89

Which cytotoxicity at 10 µM value belongs to CCc1ncc(-c2cn(CCSc3ncn[nH]3)nn2)cn1 ?
1.41

Which cytotoxicity at 10 µM value belongs to O=C(NCCC(=O)N1CCCC1)C(OC1CCCC1)c1ccccc1 (stereo not drawn) ?
-4.36

Which cytotoxicity at 10 µM value belongs to COC[C@@H]1CCC[C@@]12CN(C(=O)N1CCCC1)CCO2 ?
-101

Which cytotoxicity at 10 µM value belongs to CCc1ccc(-n2nnc(C(=O)O)c2-c2ccncc2)cc1 ?
3.02

Which cytotoxicity at 10 µM value belongs to CN(Cc1n[nH]c(=O)n1CCc1ccccc1F)S(C)(=O)=O ?
-1.78

Which cytotoxicity at 10 µM value belongs to Cc1ccc(S(=O)(=O)Cc2nsc(N(C)C)n2)c(C)c1 ?
-25.2

Which cytotoxicity at 10 µM value belongs to CCN1CCC(CNCc2cc(OC)ccc2OC)C1 (stereo not drawn) ?
-2

Which cytotoxicity at 10 µM value belongs to CC(C)COc1cncc(N2CCCN(CC(F)(F)F)CC2)n1 ?
4.29

Which cytotoxicity at 10 µM value belongs to CC(=O)N[C@H]1CN(S(=O)(=O)N(C)Cc2ccccc2)C[C@@H]1C1CC1 ?
-144

Which cytotoxicity at 10 µM value belongs to c1ncn(CC2CCCN(Cc3csc(-c4ccsc4)n3)C2)n1 (stereo not drawn) ?
-9.86

Which cytotoxicity at 10 µM value belongs to O=C(Nc1cccc(CN2CCC(CO)CC2)c1)c1cc(Cl)c[nH]1 ?
-150

Which cytotoxicity at 10 µM value belongs to O=C(C1CC(=O)N(c2ccccc2Br)C1)N1CCC2(CC1)OCCO2 (stereo not drawn) ?
11.3

Which cytotoxicity at 10 µM value belongs to Cc1ccc(C(=O)N2CCC3(CC2)COC(COc2cccnc2)C3)o1 (stereo not drawn) ?
-3.16

Which cytotoxicity at 10 µM value belongs to NCC1Cc2cccc(-c3nccc(N4CCC(O)CC4)n3)c2O1 (stereo not drawn) ?
-14.9

Which cytotoxicity at 10 µM value belongs to CCn1nnc(NCc2ccc(-c3ccc(Br)cc3)o2)n1 ?
-10.1

Which cytotoxicity at 10 µM value belongs to COc1cc(C(=O)Nc2nc(C)no2)ccc1OC(F)F ?
-4.29

Which cytotoxicity at 10 µM value belongs to CN(Cc1cncnc1)[C@H]1CN(C(=O)c2ccco2)[C@@H]2CCCO[C@@H]21 ?
-101

Which cytotoxicity at 10 µM value belongs to CC(=O)N1CCC(NC(=O)NCCCc2cn[nH]c2C)CC1 ?
-4.2

Which cytotoxicity at 10 µM value belongs to O=C(CN1CCCNC1=O)N1CCCC(c2nccs2)C1 (stereo not drawn) ?
-12.5

Which cytotoxicity at 10 µM value belongs to CC1CCCN(S(=O)(=O)NCCCn2ccc3ccccc32)C1 (stereo not drawn) ?
13.6

Which cytotoxicity at 10 µM value belongs to Cc1ccc(OCCN(C)S(=O)(=O)N2CCOCC2)cc1 ?
0.651

Which cytotoxicity at 10 µM value belongs to COCc1nc2ncc3c(=O)n(-c4ccc(C(C)=O)cc4)ccc3n2n1 ?
-7.03

Which cytotoxicity at 10 µM value belongs to O=C(c1cn(CC(=O)N2CCCCCC2)c2ccccc12)C1CC1 ?
13.6

Which cytotoxicity at 10 µM value belongs to CN(C)CCCNC(=O)c1nc(Cc2c(Cl)cccc2Cl)no1 ?
-0.31

Which cytotoxicity at 10 µM value belongs to CS(=O)(=O)N1CCc2ccc(C(=O)N3CCn4ncnc4C3)cc21 ?
-7.79

Which cytotoxicity at 10 µM value belongs to CCCN1CC2(CCN(C)CC2)CC1C(=O)NCCn1nc(C)nc1C (stereo not drawn) ?
2.7

Which cytotoxicity at 10 µM value belongs to CCOc1ccc2[nH]c(=O)c(CN3CCC(N4CCCC4)CC3)cc2c1 ?
-7.83
